Could you please report measured microsomal CLint at 1 µM for the items listed next?
Test: in vitro
Conditions: human, liver microsomes
Provide only the numeric value, understood in µL/min/mg.

Specify measured microsomal CLint at 1 µM for Brc1ccc2c(c1)CCCc1nnc(C3CCN(c4ccccn4)CC3)n1-2 .
8

Specify measured microsomal CLint at 1 µM for Clc1ccc2c(c1)CCc1nnc(C3CCN(c4ccccn4)CC3)n1-2 .
0.3

Specify measured microsomal CLint at 1 µM for Cc1ccccc1N1CCN(C(=O)N2C[C@@H](C(=O)N3CCCC3)Cc3cc(Cl)ccc32)CC1 .
72

Specify measured microsomal CLint at 1 µM for c1ccc(N2CCC(c3nnc4n3-c3ccccc3CCC4)CC2)nc1 .
12

Specify measured microsomal CLint at 1 µM for COc1nc2cc(Cl)ccc2n2c(C3CCN(c4ccccn4)CC3)nnc12 .
8

Specify measured microsomal CLint at 1 µM for Clc1ccc2c(c1)CCCc1nnc(C3CCN(c4ccccn4)CC3)n1-2 .
19

Specify measured microsomal CLint at 1 µM for Cc1cc([C@H]2CC[C@H](c3nnc4n3-c3ccc(Cl)cc3C3CC43)CC2)no1 (mixture of isomers) .
0.3

Specify measured microsomal CLint at 1 µM for Clc1ccc2c(c1)CCc1nnc([C@H]3CC[C@H](Oc4ccccn4)CC3)n1-2 .
3

Specify measured microsomal CLint at 1 µM for Brc1ccc2c(c1)CCCc1nnc([C@H]3CC[C@H](Oc4ccccn4)CC3)n1-2 .
9

Specify measured microsomal CLint at 1 µM for Cc1cc([C@H]2CC[C@H](c3nnc4n3-c3ccc(Cl)cc3CC4)CC2)no1 .
0.3
